Measured IC50 of individual entries
targetEntity: COX-2 (Homo sapiens)
Construct: Dazu wurden Mono Mac 6 Zellen mit unterschiedlichen Konzentrationen der Testsubstanzen während 30 min inkubiert; endogenous in cells
Sequence (P35354 18-604): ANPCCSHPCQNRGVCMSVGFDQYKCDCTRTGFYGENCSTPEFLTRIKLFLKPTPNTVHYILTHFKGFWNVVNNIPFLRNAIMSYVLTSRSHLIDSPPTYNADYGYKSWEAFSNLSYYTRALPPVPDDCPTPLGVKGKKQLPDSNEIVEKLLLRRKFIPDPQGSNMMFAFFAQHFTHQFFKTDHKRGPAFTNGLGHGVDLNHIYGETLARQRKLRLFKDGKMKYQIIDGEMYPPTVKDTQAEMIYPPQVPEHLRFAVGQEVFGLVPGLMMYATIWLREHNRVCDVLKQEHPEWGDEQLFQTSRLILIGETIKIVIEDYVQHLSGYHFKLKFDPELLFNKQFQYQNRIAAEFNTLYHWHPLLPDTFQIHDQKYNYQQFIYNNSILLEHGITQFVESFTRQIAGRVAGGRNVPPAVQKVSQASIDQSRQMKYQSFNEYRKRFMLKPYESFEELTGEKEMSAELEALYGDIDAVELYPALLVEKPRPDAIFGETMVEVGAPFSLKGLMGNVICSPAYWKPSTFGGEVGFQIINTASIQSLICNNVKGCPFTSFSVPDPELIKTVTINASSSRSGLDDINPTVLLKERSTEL
assayComment: cell-based
attributeMeasured: IC50 (nM)

> print(dat)
                                    molecule  attributemeasured  qual  measuredvalue
 1  CN1CCN(c2ccc3c(=O)n4c(nc3c2)C(=O)c2cc(F)ccc2-4)CC1               IC50     =           1000
 2  CCOC(=O)c1ccc2c(c1)C(=O)c1nc3ccccc3c(=O)n1-2               IC50     >          50000
 3  O=C1c2cc(Cl)ccc2-n2c1nc1cc(N3CCOCC3)ccc1c2=O               IC50     =             10
 4        O=C1c2ccccc2-n2c1nc1ccc(Cl)cc1c2=O               IC50     =           2000
 5        O=C1c2cc(Cl)ccc2-n2c1nc1ccccc1c2=O               IC50     =            500
 6    Nc1ccc2nc3n(c(=O)c2c1)-c1ccc(F)cc1C3=O               IC50     =            500
 7  CN(CCO)c1ccc2c(=O)n3c(nc2c1)C(=O)c1cc(OC(F)(F)F)ccc1-3               IC50     =            500
 8  CN(CC(=O)O)c1ccc2c(=O)n3c(nc2c1)C(=O)c1cc(Cl)ccc1-3               IC50     =            500
 9  Cc1cc(C)c2nc3n(c(=O)c2c1)-c1ccc(F)cc1C3=O               IC50     >          50000
10  CCCCCCCCS(=O)(=O)c1ccc2c(c1)C(=O)c1nc3c(OC)cccc3c(=O)n1-2               IC50     >          50000
11  CC1CN(c2cc3c(cc2F)C(=O)c2nc4ccccc4c(=O)n2-3)CCN1C(=O)OC(C)(C)C (centres unmarked)               IC50     >          50000
